System: LTD4
Assay: Antagonistic activity on LTD4 in vitro (contraction of isolated ilem in a Magnus tube)
Settings: antagonism of LTD4, guinea pig ilem, 5×10^-9 g/ml LTD4, 37° C.; read-out: IC50 (Table VI, comparison of activity by skeleton structure change (3))
Protocol: Antagonistic activity of the compounds of the present invention on LTD4 were measured by the following method. A segment of ilem (2.5 cm) was removed from guinea pig 300-400 g and suspended in a Magnus tube containing Tyrodes solution. The tube was maintained at 37° C. and aerated with 95% O2 -5% CO2. […] Contraction length at the time and contraction lengths when the compounds of the present invention were challenged at some concentrations were measured, and the IC50 value were calculated.
Lab note: compare IC50 with 30 nM, writing condition met if less and condition not met if equal or more.

Query: # TODO verify IC50 < 30 nM strictly for this molecule: O=C(Nc1cccc2ccc(-c3nn[nH]n3)cc12)c1ccc(OCCCCc2ccccc2)cc1 [1 (514)]
Result: condition met

Query: Does the reported IC50 of O=C(Nc1cccc2ccc(-c3nn[nH]n3)nc12)c1ccc(OCCCCc2ccccc2)cc1 [1 (516)] stay below 30 nM?
Result: condition met

Query: Could you please tell me whether IC50 recorded for C=CCCCC=CCOc1ccc(C(=O)Nc2cccc3c2OC(c2nn[nH]n2)CCO3)cc1 (stereo not drawn) [1 (518)] is less than 30 nM?
Result: condition not met

Query: Hello, I'm reviewing records and need to know if IC50 of O=C(Nc1cccc2c1OC(c1nn[nH]n1)CC2)c1ccc(OCCCCc2ccccc2)cc1 (stereo not drawn) [1 (521)] is below 30 nM. Could you check?
Result: condition met

Query: Report whether reported IC50 is lower than 30 nM (strictly) for CCCCCCOc1ccc(C(=O)Nc2cccc3c2OC(c2nn[nH]n2)C3)cc1 (stereo not drawn) [1 (505)]
Result: condition not met

Query: Lab log: compare recorded IC50 with 30 nM; is it strictly lower for CCCCCCOc1ccc(C(=O)Nc2cccc3cc(-c4nn[nH]n4)oc23)cc1 [1 (501)] ?
Result: condition not met

* * *

target: 5α-reductase; experiment: Inhibitory activity on 5α-reductase in vitro; settings: [4-14C]testosterone 5 μM, NADPH 5×10^-3 M, pH 7.4, 37° C., 60 mins; read-out: IC50, inhibitory activity on 5α-reductase (Table VII)
Endpoint name: IC50
I'd appreciate it if you included the unit after the number.

The molecule `CCCCCc1ccc(C(C)=CC(=O)Nc2ccccc2SCCCC(=O)O)cc1` showed IC50 equal to 4 µM

The molecule `CCCCCc1ccc(C=CC(=O)Nc2ccccc2OCCCC(=O)O)cc1` showed IC50 equal to 5 µM
